- experiment summary: Measurement of Log P values by HPLC on reversed phase columns (EEC directive 79/831 Annex V.A8)
- Type: physicochemical
- details: reversed phase HPLC column, method [a]: LC-UV, acidic range, 0.1% formic acid in water and acetonitrile as eluent
This listing pairs compounds with measured chromatographic logP.
assay metric: chromatographic logP

compound	observed result
Cc1ccc(C(F)(F)CNC(=O)c2c(Oc3cccc(C(F)(F)F)c3)nnc3c2COCC3)c(C)c1	3.7
Cc1ccc(C(F)(F)CNC(=O)c2c(Oc3cccc(C4CC4)c3F)cnc3nccnc23)c(C)c1	3.71
Cc1ccc([C@@H](F)CNC(=O)c2c(Oc3cccc(C(F)(F)F)c3)cnc3ccccc23)c(Cl)c1 (racemic)	4.4
Cc1cc(Cl)ccc1[C@@H](F)CNC(=O)c1c(Oc2cccc(Cl)c2)nnc2ccccc12 (racemic)	4.23

###

- experiment summary: Measurement of Log P values by HPLC on reversed phase columns (EEC directive 79/831 Annex V.A8)
- Assay type: physicochemical
- details: reversed phase HPLC column, method [a]: LC-UV, acidic range, 0.1% formic acid in water and acetonitrile as eluent
Threshold 4. chromatographic logP below it: rule met. chromatographic logP at it or above: rule not met.

compound	label
O=C(NCC(F)(F)c1ccc(Cl)cc1)c1c(Oc2cccc(C(F)F)c2)nnc2ccccc12 [I-034]	rule met
Cc1ccc(CCNC(=O)c2c(Oc3cccc(C(F)(F)F)c3)nnc3ccccc23)o1 [I-075]	rule met
Cc1ccc(C(F)(F)CNC(=O)c2c(Oc3cccc(Br)c3)cnc3nccnc23)c(C)c1 [I-241]	rule met
Cc1ccc(C(F)(F)CNC(=O)c2c(Oc3cccc(C(F)(F)F)c3)nnc3cc(C4CC4)ccc23)cc1C [I-235]	rule not met
Cc1ccc(C(F)(F)CNC(=O)c2c(Oc3cccc(C4CC4)c3F)nnc3ccccc23)c(C)c1 [I-071]	rule not met
O=C(NC[C@@H](F)c1ccc(Cl)c(Cl)c1)c1c(Oc2cccc(Cl)c2)nnc2ccccc12 (racemic) [I-051]	rule not met
Cc1ccc(CCNC(=O)c2c(Oc3cccc(C(F)(F)F)c3)cnc3c2OCCO3)c(C)c1 [I-110]	rule met
O=C(NC[C@@H](F)c1ccc(Cl)c(Cl)c1)c1c(Oc2cccc(C(F)(F)F)c2)cnc2ccccc12 (racemic) [I-059]	rule not met
O=C(NCC(F)(F)c1ccc(Br)cc1Cl)c1c(Oc2cccc(C(F)(F)F)c2)nnc2c1CCCC2 [I-207]	rule not met

###

- experiment summary: Measurement of Log P values by HPLC on reversed phase columns (EEC directive 79/831 Annex V.A8)
- Type: physicochemical
- details: reversed phase HPLC column, method [a]: LC-UV, acidic range, 0.1% formic acid in water and acetonitrile as eluent
assay metric: chromatographic logP

molecule	observed result
O=C(NCC(F)(F)c1ccc(Cl)cn1)c1c(Oc2cccc(C(F)(F)F)c2)cnc2ccccc12	3.74
Cc1ccc(C(F)(F)CNC(=O)c2c(Oc3cccc(C(F)(F)F)c3)cnc3c2OCCO3)c(C)c1	3.71
COC(=O)c1c(Oc2cccc(C(F)(F)F)c2)nnc2ccsc12	3.34
CCOC(=O)c1c(Oc2cccc(C(F)(F)F)c2)nnc2ccccc12	3.95
CCOC(=O)c1c(Oc2cccc(C(F)(F)F)c2)nnc2cc(F)ccc12	4.16
Cc1ccc([C@@H](F)CNC(=O)c2c(Oc3cccc(Cl)c3)nnc3ccccc23)cc1C (racemic)	4.05

###

This listing pairs compounds with measured inhibition at 20 ppm.
- System: Colletotrichum lindemuthianum
- experiment summary: B-8. Colletotrichum lindemuthianum in vitro cell test
- Format: cell-based
- details: 144 h, 20 ppm of active ingredient, 6 days incubation, liquid culture, absorbance, read-out: efficacy (inhibition of fungal growth)

compound	inhibition at 20 ppm
Cc1ccc(C(F)(F)CNC(=O)c2c(Oc3cccc(C4CC4)c3F)nnc3c2CCCC3)c(Cl)c1	90 to 100%
Cc1ccc(CCNC(=O)c2c(Oc3cccc(C4CC4)c3F)nnc3ccccc23)c(C)c1	90 to 100%
Cc1cc(C(F)F)ccc1[C@@H](F)CNC(=O)c1c(Oc2cccc(Cl)c2)nnc2ccccc12 (racemic)	90 to 100%
